# experiment: in vitro
# particulars: human, liver microsomes
parameter: CLint scaled at 0.75 h, 1 µM (mL/min/kg)
Write the value in mL/min/kg as a bare number.

Solved cases (3 shown):
smiles string: O=C(N[C@@H](Cn1ccnc1)c1ccc(Cl)cc1Cl)c1ccc(-c2nnc(-c3ccc(C(F)(F)F)c(F)c3)o2)cc1
unit descriptor: mL/min/kg
CLint scaled at 0.75 h, 1 µM: 6.06
//
smiles string: O=C(N[C@@H](Cn1ccnc1)c1ccc(Cl)cc1Cl)c1ccc(-c2nnc(-c3ccccc3)o2)cc1
unit descriptor: mL/min/kg
CLint scaled at 0.75 h, 1 µM: 8.31
//
smiles string: O=C(N[C@@H](Cn1ccnc1)c1ccc(Cl)cc1Cl)c1ccc(-c2nnc(-c3cc(F)cc(-c4ccccn4)c3)o2)cc1
unit descriptor: mL/min/kg
CLint scaled at 0.75 h, 1 µM: 96.6

Give the measured CLint scaled at 0.75 h, 1 µM of O=C(N[C@@H](Cn1ccnc1)c1ccc(Cl)cc1Cl)c1ccc(-c2nnc(-c3cc(F)cc(-c4ncncc4F)c3)o2)cc1 .
14.9

* * *

# experiment: in vitro
# particulars: Sprague-Dawley, rat, liver microsomes
Entry flag: Met if CLhep predicted at 0.75 h, 1 µM reaches 30 mL/min/kg; Not met if it does not.

smiles string: O=C(N[C@@H](Cn1ccnc1)c1ccc(Cl)cc1Cl)c1ccc(-c2nnc(-c3cc(F)cc(OCC(F)(F)F)c3)o2)cc1
assigned label: Not met

smiles string: O=C(N[C@@H](Cn1ccnc1)c1ccc(Cl)cc1Cl)c1ccc(-c2nnc(-c3cccc(-c4ccccn4)c3)o2)cc1
assigned label: Met

smiles string: O=C(N[C@@H](Cn1ccnc1)c1ccc(Cl)cc1Cl)c1ccc(-c2nnc(-c3ccc(F)c(F)c3)o2)cc1
assigned label: Not met

Is the recorded value of CLhep predicted at 0.75 h, 1 µM equal to or greater than 30 mL/min/kg for this compound? O=C(N[C@@H](Cn1ccnc1)c1ccc(Cl)cc1Cl)c1ccc(-c2nnc(-c3cccc(Br)c3)o2)cc1
Not met

I'd appreciate it if you could say whether O=C(N[C@@H](Cn1ccnc1)c1ccc(Cl)cc1Cl)c1ccc(-c2nnc(-c3ccc(C(F)(F)F)c(F)c3)o2)cc1 has CLhep predicted at 0.75 h, 1 µM at least equal to 30 mL/min/kg.
Not met

Form field: CLhep predicted at 0.75 h, 1 µM at least 30 mL/min/kg? Entry: O=C(N[C@@H](Cn1ccnc1)c1ccc(Cl)cc1Cl)c1ccc(-c2nnc(-c3ccc(Cl)c(Cl)c3)o2)cc1
Met

// inclusive: CLhep predicted at 0.75 h, 1 µM at least 30 mL/min/kg? input: O=C(N[C@@H](Cn1ccnc1)c1ccc(Cl)cc1Cl)c1ccc(-c2nnc(-c3cc(-c4ccccn4)ccc3F)o2)cc1
Not met

Could you please find out whether O=C(N[C@@H](Cn1ccnc1)c1ccc(Cl)cc1Cl)c1ccc(-c2nnc(-c3ccccc3)o2)cc1 has CLhep predicted at 0.75 h, 1 µM that meets 30 mL/min/kg or exceeds it?
Not met

* * *

# study target: Lanosterol 14-alpha demethylase (Aspergillus, UniProt B8NUK6+G4WW85+Q9P8R0)
# Sequence (B8NUK6 whole entry): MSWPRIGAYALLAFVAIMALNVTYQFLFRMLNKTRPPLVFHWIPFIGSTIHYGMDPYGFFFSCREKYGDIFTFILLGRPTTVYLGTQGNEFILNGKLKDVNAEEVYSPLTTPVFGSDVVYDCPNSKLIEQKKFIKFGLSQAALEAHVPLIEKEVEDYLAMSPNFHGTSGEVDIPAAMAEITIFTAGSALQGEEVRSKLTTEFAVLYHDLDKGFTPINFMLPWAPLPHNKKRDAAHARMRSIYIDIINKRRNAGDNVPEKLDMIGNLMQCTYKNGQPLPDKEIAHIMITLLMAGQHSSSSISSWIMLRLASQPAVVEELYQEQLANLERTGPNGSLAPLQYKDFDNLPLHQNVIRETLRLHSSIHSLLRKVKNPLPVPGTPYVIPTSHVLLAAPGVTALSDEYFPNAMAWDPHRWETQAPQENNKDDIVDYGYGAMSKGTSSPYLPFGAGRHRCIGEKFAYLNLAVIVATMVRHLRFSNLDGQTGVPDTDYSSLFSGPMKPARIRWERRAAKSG
# Sequence (Q9P8R0 whole entry): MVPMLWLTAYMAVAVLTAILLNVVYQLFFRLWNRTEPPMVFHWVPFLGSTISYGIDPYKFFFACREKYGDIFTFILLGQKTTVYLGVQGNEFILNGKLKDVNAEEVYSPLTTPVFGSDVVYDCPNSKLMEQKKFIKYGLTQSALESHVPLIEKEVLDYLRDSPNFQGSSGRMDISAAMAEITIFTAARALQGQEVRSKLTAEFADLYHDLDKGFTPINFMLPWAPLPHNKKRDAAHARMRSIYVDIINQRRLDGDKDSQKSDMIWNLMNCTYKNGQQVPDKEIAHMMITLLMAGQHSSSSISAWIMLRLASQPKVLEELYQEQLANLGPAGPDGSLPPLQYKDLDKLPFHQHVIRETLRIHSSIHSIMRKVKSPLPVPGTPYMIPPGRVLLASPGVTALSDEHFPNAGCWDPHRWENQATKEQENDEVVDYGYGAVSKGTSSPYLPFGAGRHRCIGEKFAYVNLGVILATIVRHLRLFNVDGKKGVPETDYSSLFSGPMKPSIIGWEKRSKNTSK
# Sequence (G4WW85 whole entry): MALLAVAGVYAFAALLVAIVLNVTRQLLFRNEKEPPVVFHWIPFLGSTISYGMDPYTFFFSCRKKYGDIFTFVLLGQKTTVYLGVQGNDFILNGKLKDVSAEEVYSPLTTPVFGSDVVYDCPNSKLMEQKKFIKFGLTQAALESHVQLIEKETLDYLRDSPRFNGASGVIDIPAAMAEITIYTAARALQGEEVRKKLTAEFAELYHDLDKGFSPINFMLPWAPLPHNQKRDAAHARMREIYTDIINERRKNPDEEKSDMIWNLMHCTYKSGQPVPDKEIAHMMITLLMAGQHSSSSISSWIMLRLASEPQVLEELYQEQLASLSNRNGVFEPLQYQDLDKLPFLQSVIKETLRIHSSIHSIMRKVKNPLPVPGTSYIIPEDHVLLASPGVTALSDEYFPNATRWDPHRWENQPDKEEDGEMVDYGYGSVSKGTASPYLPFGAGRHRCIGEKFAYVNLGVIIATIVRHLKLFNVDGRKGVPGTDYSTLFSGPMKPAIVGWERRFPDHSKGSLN
# experiment: Binding affinity to Aspergillus fumigatus CYP51 by spectral titration method
# particulars: read-out: Kd(app)
pKd overview
pKd is defined as minus the log10 of a concentration measured in mol/L.

Illustrative cases are given below, each with its answer.
compound: O=C(N[C@@H](Cn1ccnc1)c1ccc(Cl)cc1Cl)c1ccc(-c2nnc(-c3ccccc3)o2)cc1
study target: Lanosterol 14-alpha demethylase (Aspergillus, UniProt B8NUK6+G4WW85+Q9P8R0)
observed result: 6.69
//
compound: C[C@@H](c1ncncc1F)[C@](O)(Cn1cncn1)c1ccc(F)cc1F [VORICONAZOLE]
study target: Lanosterol 14-alpha demethylase (Aspergillus, UniProt B8NUK6+G4WW85+Q9P8R0)
observed result: 7.25
//
compound: O=C(N[C@@H](Cn1ccnc1)c1ccc(Cl)cc1Cl)c1ccc(-c2nnc(-c3ccc(C(F)(F)F)c(F)c3)o2)cc1
study target: Lanosterol 14-alpha demethylase (Aspergillus, UniProt B8NUK6+G4WW85+Q9P8R0)
observed result: 7.26
//
compound: O=C(N[C@@H](Cn1ccnc1)c1ccc(Cl)cc1Cl)c1ccc(-c2nnc(-c3ccc(F)c(F)c3)o2)cc1
study target: Lanosterol 14-alpha demethylase (Aspergillus, UniProt B8NUK6+G4WW85+Q9P8R0)
observed result: 7.24
//
compound: O=C(N[C@@H](Cn1ccnc1)c1ccc(Cl)cc1Cl)c1ccc(-c2nnc(-c3ccc(OCC(F)(F)F)cc3F)o2)cc1
study target: Lanosterol 14-alpha demethylase (Aspergillus, UniProt B8NUK6+G4WW85+Q9P8R0)
observed result: 7.70
//
compound: O=C(N[C@@H](Cn1ccnc1)c1ccc(Cl)cc1Cl)c1ccc(-c2nnc(-c3cc(F)cc(-c4ccccn4)c3)o2)cc1
study target: Lanosterol 14-alpha demethylase (Aspergillus, UniProt B8NUK6+G4WW85+Q9P8R0)
observed result: 7.21
//
compound: O=C(N[C@@H](Cn1ccnc1)c1ccc(Cl)cc1Cl)c1ccc(-c2nnc(-c3cc(F)cc(-c4ncncc4F)c3)o2)cc1
study target: Lanosterol 14-alpha demethylase (Aspergillus, UniProt B8NUK6+G4WW85+Q9P8R0)
observed result: 6.88

# evaluate next
Which measured pKd belongs to CC[C@@H]([C@H](C)O)n1ncn(-c2ccc(N3CCN(c4ccc(OC[C@@H]5CO[C@@](Cn6cncn6)(c6ccc(F)cc6F)C5)cc4)CC3)cc2)c1=O [POSACONAZOLE] , tested on Lanosterol 14-alpha demethylase (Aspergillus, UniProt B8NUK6+G4WW85+Q9P8R0)?
6.88

* * *

# Test system: Aspergillus fumigatus
# experiment: Antifungal activity against Aspergillus fumigatus 1022 after 48 hrs by CLSI M38-A2 protocol based assay
# Assay type: functional
# particulars: Aspergillus fumigatus, 1022, 48 h; read-out: MIC100
parameter: MIC (µg/mL)
// return numeric value only (unit: µg/mL, not printed)

smiles string: O=C(N[C@@H](Cn1ccnc1)c1ccc(Cl)cc1Cl)c1ccc(-c2nnc(-c3ccc(C(F)(F)F)c(F)c3)o2)cc1
observed result: 0.19
//
smiles string: O=C(N[C@@H](Cn1ccnc1)c1ccc(Cl)cc1Cl)c1ccc(-c2nnc(-c3cc(F)cc(-c4ncncc4F)c3)o2)cc1
observed result: 0.48
//
smiles string: O=C(N[C@@H](Cn1ccnc1)c1ccc(Cl)cc1Cl)c1ccc(-c2nnc(-c3ccccc3)o2)cc1
observed result: 0.48
//
smiles string: O=C(N[C@@H](Cn1ccnc1)c1ccc(Cl)cc1Cl)c1ccc(-c2nnc(-c3ccc(F)c(F)c3)o2)cc1
observed result: 0.29

We next turn to a different molecule, shown below.
Look at this molecule and give its reported MIC. O=C(N[C@@H](Cn1ccnc1)c1ccc(Cl)cc1Cl)c1ccc(-c2nnc(-c3ccc(OCC(F)(F)F)cc3F)o2)cc1
0.19

* * *

Recorded t1/2 by entry
# experiment: Half life in Sprague-Dawley rat liver microsomes at 1 uM preincubated for 5 mins followed by NADPH addition measured up to 45 mins by LC-MS/MS analysis
# Assay type: ADME, microsome
# particulars: 0.75 h
Note: unit min is implicit; provide only the numeric part.

Fill blank: measured t1/2 of the compound O=C(N[C@@H](Cn1ccnc1)c1ccc(Cl)cc1Cl)c1ccc(-c2nnc(-c3cccc(Br)c3)o2)cc1 is ____.
106

Which t1/2 reading was recorded for the compound CS(=O)(=O)c1ccc(-c2nnc(-c3ccc(C(=O)N[C@@H](Cn4ccnc4)c4ccc(Cl)cc4Cl)cc3)o2)cc1Cl ?
27

Endpoint output: t1/2 of O=C(N[C@@H](Cn1ccnc1)c1ccc(Cl)cc1Cl)c1ccc(-c2nnc(-c3cc(F)cc(-c4ccccn4)c3)o2)cc1 . Value?
78

Data request, read-out t1/2, for O=C(N[C@@H](Cn1ccnc1)c1ccc(Cl)cc1Cl)c1ccc(-c2nnc(-c3ccc(Cl)c(Cl)c3)o2)cc1
40

Please look up its t1/2: O=C(N[C@@H](Cn1ccnc1)c1ccc(Cl)cc1Cl)c1ccc(-c2nnc(-c3ccc(-c4ccccn4)cc3)o2)cc1
30

# t1/2 lookup, item O=C(N[C@@H](Cn1ccnc1)c1ccc(Cl)cc1Cl)c1ccc(-c2nnc(-c3cc(F)cc(OCC(F)(F)F)c3)o2)cc1
56

# t1/2 lookup, item O=C(N[C@@H](Cn1ccnc1)c1ccc(Cl)cc1Cl)c1ccc(-c2nnc(-c3ccc(-c4ccccn4)cc3F)o2)cc1
54

* * *

Recorded inhibition values for a group of compounds are listed next.
# study target: Lanosterol 14-alpha demethylase (Aspergillus) (UniProt B8NUK6+Q9P8R0+G4WW85)
# experiment: Inhibition of Aspergillus fumigatus CYP51 assessed as reduction in [3-3H]eburicol 14alpha-demethylation at 0.75 uM preincubated for 60 secs followed by NADPH addition measured after 60 mins by RP-HPLC analysis relative to control
Please give a number only; it is taken to be in %.

smiles string: O=C(N[C@@H](Cn1ccnc1)c1ccc(Cl)cc1Cl)c1ccc(-c2nnc(-c3ccc(C(F)(F)F)c(F)c3)o2)cc1
study target: Lanosterol 14-alpha demethylase (Aspergillus) (UniProt B8NUK6+Q9P8R0+G4WW85)
observed result: 65

Any idea what inhibition came out for O=C(N[C@@H](Cn1ccnc1)c1ccc(Cl)cc1Cl)c1ccc(-c2nnc(-c3ccc(F)c(F)c3)o2)cc1 on Lanosterol 14-alpha demethylase (Aspergillus) (UniProt B8NUK6+Q9P8R0+G4WW85)?
58

Query the reported inhibition for Lanosterol 14-alpha demethylase (Aspergillus) (UniProt B8NUK6+Q9P8R0+G4WW85); item: O=C(N[C@@H](Cn1ccnc1)c1ccc(Cl)cc1Cl)c1ccc(-c2nnc(-c3cccc(Br)c3)o2)cc1
41

Request - read-out inhibition | tested on Lanosterol 14-alpha demethylase (Aspergillus) (UniProt B8NUK6+Q9P8R0+G4WW85) | compound O=C(N[C@@H](Cn1ccnc1)c1ccc(Cl)cc1Cl)c1ccc(-c2nnc(-c3cc(F)cc(OCC(F)(F)F)c3)o2)cc1
51

// provenance: ChEMBL document CHEMBL4118269
